Measured pKi on Adenosine receptor A1 (Homo sapiens) follows.
Sequence (P30542 whole entry): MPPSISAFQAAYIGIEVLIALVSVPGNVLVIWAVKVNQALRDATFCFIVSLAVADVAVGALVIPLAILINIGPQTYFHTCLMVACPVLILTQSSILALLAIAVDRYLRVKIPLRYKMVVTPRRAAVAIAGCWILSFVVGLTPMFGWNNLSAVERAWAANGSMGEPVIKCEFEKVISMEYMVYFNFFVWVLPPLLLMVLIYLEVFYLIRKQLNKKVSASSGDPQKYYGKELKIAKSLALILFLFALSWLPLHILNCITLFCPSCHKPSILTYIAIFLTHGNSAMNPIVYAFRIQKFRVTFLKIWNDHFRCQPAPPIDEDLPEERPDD
One number for each entry, as −log10 of the molar value.

Some compounds with recorded pKi:
# STRUCTURE_AS_SMILES, ATTRIBUTE_MEASURED, REPORTED_RESULT
records = [
    ("C[C@@H](Oc1ccccc1)C(=O)Nc1nc(-c2ccccc2)n[nH]1", "pKi", 5.28),
    ("O=C(COCc1ccccc1)Nc1nc(-c2ccccc2)n[nH]1", "pKi", 5.09),
    ("C[C@@H](Sc1ccccc1)C(=O)Nc1nnc(-c2ccccc2)[nH]1", "pKi", 5.48),
    ("Cc1cccc(OCC(=O)Nc2nc(-c3ccccc3)n[nH]2)c1", "pKi", 5.64),
    ("Cc1ccc(C(=O)Nc2nc(-c3ccccc3)n[nH]2)cc1", "pKi", 5.89),
    ("CC[C@@H](Oc1ccccc1)C(=O)Nc1nc(-c2ccccc2)n[nH]1", "pKi", 5.82),
    ("Cc1ccc(-c2nnc(NC(=O)COc3ccccc3)[nH]2)cc1", "pKi", 5.19),
    ("C[C@@H](Oc1ccc(Cl)cc1)C(=O)Nc1nc(-c2ccccc2)n[nH]1", "pKi", 5.41),
]

Proceeding to the next compound to report its pKi.
# input What does the record list as pKi for C[C@@H](Oc1cccc(Cl)c1)C(=O)Nc1nnc(-c2ccccc2)[nH]1 ?
# output 5.96

====

Target: Adenosine receptor A2a (Homo sapiens)
Sequence (P29274 whole entry): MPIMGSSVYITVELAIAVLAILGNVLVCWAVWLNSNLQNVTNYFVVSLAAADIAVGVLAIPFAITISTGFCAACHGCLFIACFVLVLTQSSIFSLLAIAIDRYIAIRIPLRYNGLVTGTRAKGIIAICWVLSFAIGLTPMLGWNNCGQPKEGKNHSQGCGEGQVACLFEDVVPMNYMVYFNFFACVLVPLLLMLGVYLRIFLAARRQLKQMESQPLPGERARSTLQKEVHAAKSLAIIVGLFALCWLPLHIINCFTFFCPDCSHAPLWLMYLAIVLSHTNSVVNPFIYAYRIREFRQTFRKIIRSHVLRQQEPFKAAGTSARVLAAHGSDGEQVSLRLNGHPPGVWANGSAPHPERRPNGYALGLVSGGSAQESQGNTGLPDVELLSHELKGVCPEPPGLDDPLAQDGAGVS
Test: Displacement of [3H]CGS21680 from human A2A adenosine receptor expressed in HEK293 cells at 10 uM after 60 mins by liquid scintillation counting
Assay type: cell-based
Exercise: state measured inhibition for each of the compounds provided.
Numeric answer plus unit only.

Some compounds with recorded inhibition:
# STRUCTURE_AS_SMILES, REPORTED_RESULT
records = [
    ("Cc1cccc(-c2n[nH]c(NC(=O)[C@H](C)Oc3ccccc3)n2)c1", "23%"),
    ("Cc1ccc(O[C@H](C)C(=O)Nc2nc(-c3ccco3)n[nH]2)cc1", "38%"),
    ("Cc1ccc(-c2n[nH]c(NC(=O)COc3ccccc3F)n2)cc1", "2%"),
    ("Cc1ccccc1-c1n[nH]c(NC(=O)[C@@H](C)Oc2ccccc2)n1", "26%"),
    ("COc1ccccc1OCC(=O)Nc1nc(-c2ccc(C)cc2)n[nH]1", "49%"),
]

Proceeding to the next compound to report its inhibition.
# input What inhibition appears in the records for this compound with Adenosine receptor A2a (Homo sapiens)? CC(=O)Nc1nc(-c2ccccc2)n[nH]1
# output 43%

====

Molecular target: UniProt:P30542
Assay: Inhibition of human A1 adenosine receptor expressed in CHO cells at 10 uM after 60 mins by liquid scintillation counting
Type: cell-based
ATTRIBUTE_MEASURED: inhibition
Numeric answer plus unit only.

Some compounds with recorded inhibition:
# COMPOUND, inhibition
rows = [
    ("CC(=O)Nc1nc(-c2ccccc2)n[nH]1", "18%"),
    ("Cc1cccc(C)c1OCC(=O)Nc1nc(-c2ccccc2)n[nH]1", "49%"),
    ("O=C(CCc1ccccc1)Nc1nc(-c2ccccc2)n[nH]1", "40%"),
]

Respectfully, I request inhibition for each entry included below.
1. Cc1ccccc1OCC(=O)Nc1nc(-c2ccccc2)n[nH]1
2. CC(C)(Oc1ccc(Cl)cc1)C(=O)Nc1nc(-c2ccccc2)n[nH]1
3. Cc1ccccc1-c1n[nH]c(NC(=O)[C@@H](C)Oc2ccccc2)n1
4. Cc1cccc(-c2n[nH]c(NC(=O)[C@@H](C)Oc3ccccc3)n2)c1

# output
16%
41%
6%
12%

Respectfully, I request inhibition for each entry included below.
1. Cc1cccc(-c2n[nH]c(NC(=O)[C@H](C)Oc3ccccc3)n2)c1
2. COc1ccc(CC(=O)Nc2nc(-c3ccccc3)n[nH]2)cc1
3. O=C(Nc1nc(-c2ccccc2)n[nH]1)c1ccc(Cl)cc1
4. Cc1ccc(O[C@H](C)C(=O)Nc2nc(-c3ccccc3)n[nH]2)cc1
5. Cc1cccc(-c2n[nH]c(NC(=O)C(C)Oc3ccccc3)n2)c1 (stereo not given)
6. COc1ccccc1OCC(=O)Nc1nc(-c2ccc(C)cc2)n[nH]1
7. Cc1ccc(-c2n[nH]c(NC(=O)COc3ccccc3F)n2)cc1

# output
1: 13%; 2: 29%; 3: 31%; 4: 38%; 5: 8%; 6: 8%; 7: 2%

Respectfully, I request inhibition for each entry included below.
1. Cc1ccc(O[C@H](C)C(=O)Nc2nc(-c3ccco3)n[nH]2)cc1
2. O=C(COc1ccc2c(c1)CCC2)Nc1nc(-c2ccccc2)n[nH]1
3. O=C(COc1ccccc1)Nc1nc(-c2ccc(F)cc2)n[nH]1
4. O=C(COc1ccccc1)Nc1nc(-c2ccccc2)n[nH]1
5. COc1ccccc1NC(=O)Nc1nc(-c2ccccc2)n[nH]1
6. CCC(=O)Nc1nc(-c2ccccc2)n[nH]1

# output
37%
46%
2%
20%
22%
39%
